Values compiled from paper PMC7034945.

# Tested on: HIV-1 NL4-3 virus
# METHOD_NOTES: Anti-HIV-1 activity, multicycle assay with HIV-1 NL4-3 in TZM-bl cells
# Type: cell-based
# COND: Table 1; TZM-bl cells
REPORTED_ENDPOINT: SI (selectivity index, ratio of CC50/EC50)

In the examples that follow, each entry is paired with its recorded SI (selectivity index, ratio of CC50/EC50).
                                   compound             system  meas_value
0  COc1ccc(N(C)C(=O)[C@H](Cc2cc(F)cc(F)c2)NC(=O)c2cn(Cc3cccc(C)c3)nn2)cc1 [I-8b]  HIV-1 NL4-3 virus       >2.04
1  COc1ccc(N(C)C(=O)[C@H](Cc2cc(F)cc(F)c2)NC(=O)c2cn(Cc3ccccc3[N+](=O)[O-])nn2)cc1 [I-8j]  HIV-1 NL4-3 virus       >5.55
2  COc1ccc(N(C)C(=O)[C@H](Cc2cc(F)cc(F)c2)NC(=O)c2cn(Cc3cccc4ccccc34)nn2)cc1 [I-8m]  HIV-1 NL4-3 virus       >1.22

Prompt: Quick check: SI (selectivity index, ratio of CC50/EC50) of COc1ccc(N(C)C(=O)[C@H](Cc2cc(F)cc(F)c2)NC(=O)c2cn(Cc3ccc([N+](=O)[O-])cc3)nn2)cc1 [I-8l] ?
Completion: >1.96

---

Parameter: EC50. Scope: all listed entries.
# System: HIV-1 NL4-3 virus
# METHOD_NOTES: Anti-HIV-1 activity, multicycle assay with HIV-1 NL4-3 in TZM-bl cells
# Format: cell-based
# COND: Human immunodeficiency virus 1, NL43, TZM-bl

Example cases with answers are listed next.
>>> df
                                   compound  meas_value
0  COc1ccc(N(C)C(=O)[C@H](Cc2cc(F)cc(F)c2)NC(=O)c2cccc(-c3cn(Cc4ccc(S(N)(=O)=O)cc4)nn3)c2)cc1 [II-10f]   > 30.3 µM
1  COc1ccc(N(C)C(=O)[C@H](Cc2cc(F)cc(F)c2)NC(=O)c2cccc(-c3cn(Cc4ccc([N+](=O)[O-])cc4)nn3)c2)cc1 [II-10c]     2.13 µM

Prompt: Tell me the measured EC50 of COc1ccc(N(C)C(=O)[C@H](Cc2cc(F)cc(F)c2)NC(=O)c2cccc(-c3cn(Cc4ccc(C(N)=O)cc4)nn3)c2)cc1 [II-10d] , please.
Completion: 23.4 µM

Prompt: Please give the measured EC50 for this compound: COc1ccc(N(C)C(=O)[C@H](Cc2cc(F)cc(F)c2)NC(=O)c2cn(Cc3cccc4ccccc34)nn2)cc1
Completion: 14.8 µM

Prompt: What does the data say about its EC50? Entry: COc1ccc(N(C)C(=O)[C@H](Cc2cc(F)cc(F)c2)NC(=O)c2cn(Cc3ccc(C(N)=O)cc3)nn2)cc1
Completion: 11.1 µM

Prompt: Would you mind telling me what EC50 value was observed for COc1ccc(N(C)C(=O)[C@H](Cc2cc(F)cc(F)c2)NC(=O)c2cccc(-c3cn(Cc4ccc5ccccc5c4)nn3)c2)cc1 [II-10j] ?
Completion: > 31.7 µM

Prompt: Which value of EC50 has been reported for COc1ccc(N(C)C(=O)[C@H](Cc2ccccc2)NC(=O)c2cccc(-c3cn(CC(=O)Nc4ccccc4)nn3)c2)cc1 [III-15e] in the records?
Completion: > 34 µM

Prompt: What value of EC50 has been recorded for this entry: COC(=O)CCCn1cc(-c2cccc(C(=O)N[C@@H](Cc3cc(F)cc(F)c3)C(=O)N(C)c3ccc(OC)cc3)c2)nn1 [II-10n]
Completion: > 33.8 µM

Prompt: Could you tell me which EC50 is on file for COc1ccc(N(C)C(=O)[C@H](Cc2cc(F)cc(F)c2)NC(=O)c2cn(Cc3ccc([N+](=O)[O-])cc3)nn2)cc1 ?
Completion: 9.26 µM

Prompt: Given COc1ccc(N(C)C(=O)[C@H](Cc2ccccc2)NC(=O)c2cccc(-c3cn(Cc4ccc5ccccc5c4)nn3)c2)cc1 [III-15j] , state its recorded EC50.
Completion: > 33.6 µM

Prompt: Sample COc1ccc(N(C)C(=O)[C@H](Cc2cc(F)cc(F)c2)NC(=O)c2cccc(-c3cn(CC(=O)Nc4ccccc4)nn3)c2)cc1 [II-10e] — what was its EC50?
Completion: 8.16 µM

Prompt: Consider the compound COc1ccc(N(C)C(=O)[C@H](Cc2cc(F)cc(F)c2)NC(=O)c2cccc(-c3cn(Cc4cccc([N+](=O)[O-])c4)nn3)c2)cc1 [II-10b] and give its measured EC50.
Completion: > 35.5 µM

Prompt: Give its EC50 value. Item: COc1ccc(N(C)C(=O)[C@H](Cc2ccccc2)NC(=O)c2cccc(-c3cn(Cc4ccccc4[N+](=O)[O-])nn3)c2)cc1 [III-15a]
Completion: > 33.9 µM

Prompt: Sample COc1ccc(N(C)C(=O)[C@H](Cc2cc(F)cc(F)c2)NC(=O)c2cccc(-c3cn(CCc4ccsc4)nn3)c2)cc1 [II-10h] — what was its EC50?
Completion: 7.48 µM

Prompt: Value lookup for EC50; key = COc1ccc(N(C)C(=O)[C@H](Cc2ccccc2)NC(=O)c2cccc(-c3cn(CCCc4ccccc4)nn3)c2)cc1 [III-15g]
Completion: > 34.9 µM

Prompt: Item COc1ccc(N(C)C(=O)[C@H](Cc2ccccc2)NC(=O)c2cccc(-c3cn(Cc4cccc5ccccc45)nn3)c2)cc1 [III-15k] has what recorded EC50?
Completion: > 33.6 µM

Prompt: Quick check: EC50 of COc1ccc(N(C)C(=O)[C@H](Cc2cc(F)cc(F)c2)NC(=O)c2cn(Cc3ccc(S(N)(=O)=O)cc3)nn2)cc1 ?
Completion: 12.3 µM

Prompt: EC50 for COc1ccc(N(C)C(=O)[C@H](Cc2cc(F)cc(F)c2)NC(=O)c2cn(-c3ccc4c(c3)OCO4)nn2)cc1 ?
Completion: 9.15 µM

Prompt: Any idea what EC50 was measured for COc1ccc(N(C)C(=O)[C@H](Cc2cc(F)cc(F)c2)NC(=O)c2cn(Cc3ccccc3C)nn2)cc1 ?
Completion: 8.85 µM

Prompt: Reported EC50, compound COc1ccc(N(C)C(=O)[C@H](Cc2cc(F)cc(F)c2)NC(=O)c2cccc(-c3cn(Cc4ccccc4[N+](=O)[O-])nn3)c2)cc1 [II-10a] : ____
Completion: > 35.5 µM

Prompt: Report EC50 for COc1ccc(N(C)C(=O)[C@H](Cc2cc(F)cc(F)c2)NC(=O)c2cn(Cc3ccc(C#N)cc3)nn2)cc1 please.
Completion: 5.84 µM

Prompt: Name the recorded EC50 for COc1ccc(N(C)C(=O)[C@H](Cc2cc(F)cc(F)c2)NC(=O)c2cn(Cc3cccc(Cl)c3)nn2)cc1 .
Completion: 8.33 µM

Prompt: What value of EC50 has been reported for the following compound? COc1ccc(N(C)C(=O)[C@H](Cc2cc(F)cc(F)c2)NC(=O)c2cccc(-c3cn(CCCc4ccccc4)nn3)c2)cc1 [II-10g]
Completion: > 32.8 µM

Prompt: What value of EC50 has been reported for the following compound? COc1ccc(N(C)C(=O)[C@H](Cc2ccccc2)NC(=O)c2cccc(-c3cn(Cc4ccc(S(N)(=O)=O)cc4)nn3)c2)cc1 [III-15f]
Completion: > 32 µM

Prompt: Give the measured EC50 of COc1ccc(N(C)C(=O)[C@H](Cc2cc(F)cc(F)c2)NC(=O)c2cn(Cc3ccc(C)cc3)nn2)cc1 .
Completion: 10.6 µM

Prompt: Which EC50 is reported for this compound? COc1ccc(N(C)C(=O)[C@H](Cc2cc(F)cc(F)c2)NC(=O)c2cn(Cc3cccc(C)c3)nn2)cc1
Completion: 9.43 µM

Prompt: What EC50 value was documented for this compound, COc1ccc(N(C)C(=O)[C@H](Cc2cc(F)cc(F)c2)NC(=O)c2cn(Cc3ccc4ccccc4c3)nn2)cc1 ?
Completion: 14.6 µM

---

Entries annotated with measured SI (selectivity index, ratio of CC50/EC50)
# Test system: HIV-1 NL4-3 virus
# METHOD_NOTES: Anti-HIV-1 activity, multicycle assay with HIV-1 NL4-3 in TZM-bl cells
# Type: cell-based
# COND: Table 1; TZM-bl cells

// known answers, use as guide
>>> print(df.to_string())
                                   compound  meas_value
0  COc1ccc(N(C)C(=O)[C@H](Cc2cc(F)cc(F)c2)NC(=O)c2cn(Cc3ccccc3C#N)nn2)cc1 [I-8g]       >1.96
1  COc1ccc(N(C)C(=O)[C@H](Cc2cc(F)cc(F)c2)NC(=O)c2cn(Cc3cccc(Cl)c3)nn2)cc1 [I-8e]       >2.22
2  COc1ccc(N(C)C(=O)[C@H](Cc2cc(F)cc(F)c2)NC(=O)c2cn(Cc3ccc(Cl)cc3)nn2)cc1 [I-8f]       >2.13

Prompt: What does the record list as SI (selectivity index, ratio of CC50/EC50) for COc1ccc(N(C)C(=O)[C@H](Cc2cc(F)cc(F)c2)NC(=O)c2cn(Cc3ccc(S(N)(=O)=O)cc3)nn2)cc1 [I-8r] ?
Completion: >1.39

Prompt: # lookup: SI (selectivity index, ratio of CC50/EC50) of COc1ccc(N(C)C(=O)[C@H](Cc2cc(F)cc(F)c2)NC(=O)c2cn(CS(=O)(=O)c3ccccc3)nn2)cc1 [I-8t]
Completion: >4.17

Prompt: Any idea what its SI (selectivity index, ratio of CC50/EC50) is? The compound is COc1ccc(N(C)C(=O)[C@H](Cc2cc(F)cc(F)c2)NC(=O)c2cn(Cc3ccc(C)cc3)nn2)cc1 [I-8c]
Completion: >1.82
